Taken from patent US20260015358A1.

Attribute: IC50
# Study Target: WRN [UniPro: Q14191 (WRN_HUMAN), N500-C946] (Homo sapiens (Human), UniProt Q14191)
# Sequence (Q14191 500-946): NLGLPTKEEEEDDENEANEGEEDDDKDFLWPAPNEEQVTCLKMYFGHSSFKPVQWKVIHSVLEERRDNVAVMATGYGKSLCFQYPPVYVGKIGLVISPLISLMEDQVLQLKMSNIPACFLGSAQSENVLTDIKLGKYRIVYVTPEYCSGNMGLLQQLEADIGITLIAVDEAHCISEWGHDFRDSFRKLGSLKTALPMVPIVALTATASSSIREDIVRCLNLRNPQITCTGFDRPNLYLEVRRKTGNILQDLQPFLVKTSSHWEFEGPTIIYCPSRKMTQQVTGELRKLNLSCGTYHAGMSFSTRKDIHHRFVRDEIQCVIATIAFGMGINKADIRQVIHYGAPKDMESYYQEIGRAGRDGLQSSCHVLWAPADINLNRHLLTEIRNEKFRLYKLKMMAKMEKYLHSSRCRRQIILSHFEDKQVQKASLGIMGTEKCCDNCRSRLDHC
# Protocol Details: WRN unwinding assay (FORKF DNA, fluorescence)
# Format: biochemical
# Assay Conditions: Table 14

>>> reading("CCc1c(N2CCN(C(=O)CCO)CC2)c(=O)n2nc(C3=CCOCC3)nc2n1CC(=O)Nc1ccc(C(F)(F)F)cc1Cl [Example 16]")
"100 to 1000 nM"
>>> reading("CCc1c(N2CCN(C(=O)c3nn4ccnc4cc3O)CC2)c(=O)n2nc(C3=CCOCC3)nc2n1CC(=O)Nc1ccc(C(F)(F)F)cc1Cl [Example 85]")
"< 100 nM"
>>> reading("CCc1c(N2CCN(C(=O)CNC(=O)c3ccccc3F)CC2)c(=O)n2nc(C3=CCOCC3)nc2n1CC(=O)Nc1cc(C)no1 [Example 160]")
"> 1000 nM"
>>> reading("CCc1c(N2CCN(C(=O)C(=O)Nc3cncs3)CC2)c(=O)n2nc(C3=CCOCC3)nc2n1CC(=O)Nc1ccc(C(F)(F)F)cc1F [Example 349]")
"< 100 nM"
>>> reading("CCc1c(N2CCN(C(=O)c3ncc(F)cc3N)CC2)c(=O)n2nc(C3=CCOCC3)nc2n1CC(=O)Nc1ccc(C(F)(F)F)cc1Cl [Example 46]")
"< 100 nM"
>>> reading("CCc1c(N2CCN(C(=O)CNC(=O)c3ccncc3)CC2)c(=O)n2nc(C3=CCOCC3)nc2n1CC(=O)Nc1ccc(C(F)(F)F)cc1Cl [Example 96]")
"< 100 nM"
>>> reading("CCc1c(N2CCN(C(=O)CNC(=O)Nc3ccccc3)CC2)c(=O)n2nc(C3=CCOCC3)nc2n1CC(=O)Nc1ccc(C(F)(F)F)cc1Cl [Example 178]")
"< 100 nM"
>>> reading("CCc1c(N2CCN(C(=O)CNC(C)=O)CC2)c(=O)n2nc(C3=CCOCC3)nc2n1CC(=O)Nc1ccc(C(F)(F)F)cc1Cl [Example 168]")
"< 100 nM"

Qu. Given CCc1c(N2CCN(C(=O)c3ncc4ccn(C)c4c3O)CC2)c(=O)n2nc(C3=CCOCC3)nc2n1CC(=O)Nc1ccc(C(F)(F)F)cc1Cl [Example 203] , report its IC50 on WRN [UniPro: Q14191 (WRN_HUMAN), N500-C946] (Homo sapiens (Human), UniProt Q14191).
Ans. < 100 nM

Qu. Please tell me the measured IC50 for CCc1c(N2CCN(C(=O)C(C)(C)NC(=O)c3ccccc3)CC2)c(=O)n2nc(C3=CCOCC3)nc2n1CC(=O)Nc1ccc(C(F)(F)F)cc1Cl [Example 137] ; system: WRN [UniPro: Q14191 (WRN_HUMAN), N500-C946] (Homo sapiens (Human), UniProt Q14191).
Ans. > 1000 nM

Qu. Recall the reported IC50 of CCc1c(N2CCN(C(=O)CNC(=O)c3ncncc3O)CC2)c(=O)n2nc(C3=CCOCC3)nc2n1CC(=O)Nc1ccc(C(F)(F)F)cc1Cl [Example 364] when tested on WRN [UniPro: Q14191 (WRN_HUMAN), N500-C946] (Homo sapiens (Human), UniProt Q14191).
Ans. < 100 nM

Qu. Give IC50 for CCc1c(N2CCN(C(=O)C(=O)Nc3nnc(Cl)s3)CC2)c(=O)n2nc(C3=CCOCC3)nc2n1CC(=O)Nc1ccc(C(F)(F)F)cc1Cl [Example 351] tested on WRN [UniPro: Q14191 (WRN_HUMAN), N500-C946] (Homo sapiens (Human), UniProt Q14191).
Ans. < 100 nM
